recorded_endpoint: pKd
Formally, pKd is defined as -log10 of the concentration c, with c in mol/L.

# pKd measured on Matrix metalloproteinase-9 (Homo sapiens) for item "COc1ccc(-c2oc3cc(O)cc(O)c3c(=O)c2O[C@@H]2O[C@H](CO)[C@@H](O)[C@H](O)[C@H]2O)cc1O" = 7.00
